# Target Of Assay: IRAK4 (Homo sapiens, UniProt Q9NWZ3)
# Construct: endogenous in cells; host or cells: THP-1 cells
# Sequence (Q9NWZ3 1-460): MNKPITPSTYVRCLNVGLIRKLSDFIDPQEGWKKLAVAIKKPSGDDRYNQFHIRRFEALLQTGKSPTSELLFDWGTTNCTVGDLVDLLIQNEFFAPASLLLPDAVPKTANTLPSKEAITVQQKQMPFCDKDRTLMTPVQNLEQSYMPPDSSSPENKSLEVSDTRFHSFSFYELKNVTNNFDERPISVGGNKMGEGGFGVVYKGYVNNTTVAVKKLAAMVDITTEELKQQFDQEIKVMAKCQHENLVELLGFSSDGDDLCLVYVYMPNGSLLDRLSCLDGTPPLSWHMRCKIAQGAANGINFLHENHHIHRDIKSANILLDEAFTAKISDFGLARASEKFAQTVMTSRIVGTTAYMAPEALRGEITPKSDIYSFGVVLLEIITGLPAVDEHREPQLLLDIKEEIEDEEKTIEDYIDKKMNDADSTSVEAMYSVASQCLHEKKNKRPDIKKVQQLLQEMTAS
# Assay: LVL THP1 HTRF (THP1 Homogeneous Time Resolved Fluorescence)
# Type: cell-based
# Experimental Conditions: THP1 cells, 18 h incubation with compound
Measure Name: LVL THP1 HTRF YMIN (%)

[
  {
    "Molecule": "C[C@H](C#N)Nc1cc(-n2ncc3cc(C#N)cnc32)ncc1-n1cc(C2CCC(CCN3CCN(c4ccc(N5CCC(=O)NC5=O)cc4)[C@@H]4CCC[C@@H]43)CC2)nn1 (single isomer, unassigned)",
    "Measure Name": "LVL THP1 HTRF YMIN",
    "Value Measured": 9.83
  },
  {
    "Molecule": "C[C@H](C#N)Nc1cc(-n2ncc3cc(C#N)cnc32)ncc1-n1cc([C@H]2CC[C@H](CCN3CCC(n4cc(NC5CCC(=O)NC5=O)cn4)CC3)CC2)nn1 (some centres unmarked)",
    "Measure Name": "LVL THP1 HTRF YMIN",
    "Value Measured": 13.1
  },
  {
    "Molecule": "C[C@H](C#N)Nc1cc(-n2ncc3cc(C#N)cnc32)ncc1-n1cc([C@H]2CC[C@H](CCN3CCN(Cc4ccc(N5CCC(=O)NC5=O)cc4)CC3)CC2)nn1",
    "Measure Name": "LVL THP1 HTRF YMIN",
    "Value Measured": 39.6
  }
]

P = C[C@H](C#N)Nc1cc(-n2ncc3cc(C#N)cnc32)ncc1-n1cc([C@H]2CC[C@H](CCN3CCC(c4ccc([C@@]5(F)CCC(=O)NC5=O)cc4)CC3)CC2)nn1 (single isomer, unassigned) [P-337]
Q = C[C@H](C#N)Nc1cc(-n2ncc3cc(C#N)cnc32)ncc1-n1cc([C@H]2CC[C@](O)(CCN3CCN(c4ccc([C@@]5(C)CCC(=O)NC5=O)cc4)[C@@H](C)C3)CC2)nn1 (single isomer, unassigned)
R = C[C@H](C#N)Nc1cc(-n2ncc3cc(C#N)cnc32)ncc1-n1cc([C@H]2CC[C@H](CCN3CC4(CC(c5ccc(N6CCC(=O)NC6=O)c(F)c5)C4)C3)CC2)nn1
S = Cc1cc(C2CCN(CC[C@H]3CC[C@H](c4cn(-c5cnc(-n6ncc7cc(C#N)cnc76)cc5N[C@H](C)C#N)nn4)CC3)CC2)ccc1N1CCC(=O)NC1=O
T = C[C@H](C#N)Nc1cc(-n2ncc3cc(C#N)cnc32)ncc1-n1cc([C@H]2CC[C@H](CCN3C[C@@H]4CN(c5ccc([C@@]6(C)CCC(=O)NC6=O)cc5)C[C@@H]4C3)CC2)nn1 (single isomer, unassigned)
Challenge: # rank by LVL THP1 HTRF YMIN, ascending (min first) List the labels in the requested order.
Response given: Q, R, P, S, T
